Each recorded value in this set is attributed to paper PMC12529666.

biological target: AGO2 F182del (Homo sapiens, UniProt Q9UKV8 1-859, S387D;S824A;S828D;S831D;S834A;del182-182); assay: RNA Bind-n-Seq (nitrocellulose filter binding and sequencing); miR-122 guide loaded in AGO2; 60 min incubation; 30 mM Tris pH 8.0, 100 mM potassium acetate, 2 mM magnesium acetate, 0.5 mM TCEP, 0.005% NP-40, 0.01 mg/ml yeast tRNA; 3 nM AGO2-miR-122, 100 nM RNA library; 60; high values mean tight binding; conditions: protein: recombinant; tags: His6 (N-terminal, pFastBac HTA)
Sequence (Q9UKV8 other isoform, or with tags, fused parts or gaps S387D;S824A;S828D;S831D;S834A;del182-182): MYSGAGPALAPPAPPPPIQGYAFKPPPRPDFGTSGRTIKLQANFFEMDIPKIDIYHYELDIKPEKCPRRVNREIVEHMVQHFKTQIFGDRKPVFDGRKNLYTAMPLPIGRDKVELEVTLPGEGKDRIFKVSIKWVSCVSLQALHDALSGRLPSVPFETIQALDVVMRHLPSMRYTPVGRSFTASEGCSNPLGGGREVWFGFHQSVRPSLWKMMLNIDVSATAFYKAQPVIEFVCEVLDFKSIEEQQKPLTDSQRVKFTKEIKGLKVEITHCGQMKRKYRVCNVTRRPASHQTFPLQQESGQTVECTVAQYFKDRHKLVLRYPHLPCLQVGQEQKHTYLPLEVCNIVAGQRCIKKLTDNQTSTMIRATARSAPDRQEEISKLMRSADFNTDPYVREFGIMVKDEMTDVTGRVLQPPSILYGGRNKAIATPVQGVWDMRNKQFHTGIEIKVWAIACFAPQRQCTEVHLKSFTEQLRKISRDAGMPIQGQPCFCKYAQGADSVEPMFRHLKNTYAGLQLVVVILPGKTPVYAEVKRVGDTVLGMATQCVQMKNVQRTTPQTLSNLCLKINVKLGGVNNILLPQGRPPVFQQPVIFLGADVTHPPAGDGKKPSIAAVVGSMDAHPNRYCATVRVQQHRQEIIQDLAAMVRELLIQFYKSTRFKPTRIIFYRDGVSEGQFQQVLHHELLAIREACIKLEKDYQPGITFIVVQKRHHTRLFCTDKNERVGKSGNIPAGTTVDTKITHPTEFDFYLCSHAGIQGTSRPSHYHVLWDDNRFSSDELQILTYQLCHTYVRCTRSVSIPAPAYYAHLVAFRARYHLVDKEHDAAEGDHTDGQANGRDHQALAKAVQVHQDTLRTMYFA

binder: GCACTCTA (ssRNA, constant regions annealed to DNA blockers; guide miR-122 5' phosphate) RNA 1: GAGUUCUACAGUCCGACGAUCCCAACGCACUCUACACCUGGAAUUCUCGGGUGCCAA RNA 2: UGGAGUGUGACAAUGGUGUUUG DNA 1: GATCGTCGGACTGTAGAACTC DNA 2: TTGGCACCCGAGAATTCCA
binding signal: 0.786 fold enrichment over input
--
binder: ACACCCCA (ssRNA, constant regions annealed to DNA blockers; guide miR-122 5' phosphate) RNA 1: GAGUUCUACAGUCCGACGAUCCCAACACACCCCACACCUGGAAUUCUCGGGUGCCAA RNA 2: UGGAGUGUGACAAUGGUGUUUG DNA 1: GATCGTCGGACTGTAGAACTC DNA 2: TTGGCACCCGAGAATTCCA
binding signal: 2.15 fold enrichment over input
--
binder: GCGCCTCA (ssRNA, constant regions annealed to DNA blockers; guide miR-122 5' phosphate) RNA 1: GAGUUCUACAGUCCGACGAUCCCAACGCGCCUCACACCUGGAAUUCUCGGGUGCCAA RNA 2: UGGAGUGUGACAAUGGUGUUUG DNA 1: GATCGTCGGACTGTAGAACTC DNA 2: TTGGCACCCGAGAATTCCA
binding signal: 0.304 fold enrichment over input
--
binder: GTATTTCA (ssRNA, constant regions annealed to DNA blockers; guide miR-122 5' phosphate) RNA 1: GAGUUCUACAGUCCGACGAUCCCAACGUAUUUCACACCUGGAAUUCUCGGGUGCCAA RNA 2: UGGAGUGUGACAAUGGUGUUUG DNA 1: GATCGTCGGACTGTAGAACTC DNA 2: TTGGCACCCGAGAATTCCA
binding signal: 0.805 fold enrichment over input
